- studyTarget: V1a (h) (Homo sapiens)
- Construct: expressed in transfected cells; host or cells: CHO cells
- Sequence (P37288 whole entry): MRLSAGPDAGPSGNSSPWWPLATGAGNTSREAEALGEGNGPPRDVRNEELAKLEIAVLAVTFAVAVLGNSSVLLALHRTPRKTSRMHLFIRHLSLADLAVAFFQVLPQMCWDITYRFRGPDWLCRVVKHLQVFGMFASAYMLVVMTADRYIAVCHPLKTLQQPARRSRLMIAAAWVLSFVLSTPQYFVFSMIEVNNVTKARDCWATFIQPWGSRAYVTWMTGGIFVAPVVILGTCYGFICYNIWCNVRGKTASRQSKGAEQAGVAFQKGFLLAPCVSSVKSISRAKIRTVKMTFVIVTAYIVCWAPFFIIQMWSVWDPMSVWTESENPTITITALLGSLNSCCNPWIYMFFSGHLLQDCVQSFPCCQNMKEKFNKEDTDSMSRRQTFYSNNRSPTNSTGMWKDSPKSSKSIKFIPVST
- protocolDescription: Radioligand binding V1a (h) (agonist radioligand), [^3H]AVP, CHO cells
Mean Percent Inhibition of Control Specific Binding values by entry
Lab book: enter the figure in %, no units written.

Q: Respond only with Mean Percent Inhibition of Control Specific Binding recorded for COCc1cc(CCN)c(OC)cc1CC(C)C
Ans: 5.3

Q: Respond only with Mean Percent Inhibition of Control Specific Binding recorded for COCCc1cc(CCN)c(OC)cc1Br [Compound 2CB-5ME, reference compound]
Ans: 11.2

Q: Name the recorded Mean Percent Inhibition of Control Specific Binding of the compound listed here: COCc1cc(CCN)c(O)cc1CC(C)C
Ans: 4.8

Q: Please supply the value of reported Mean Percent Inhibition of Control Specific Binding for the item COCc1cc(CCN)c(OC)cc1Br
Ans: 5.5

---

- studyTarget: MAO-A (Rattus norvegicus, UniProt P21396)
- Construct: from tissue; host or cells: rat cerebral cortex
- Sequence (P21396 whole entry): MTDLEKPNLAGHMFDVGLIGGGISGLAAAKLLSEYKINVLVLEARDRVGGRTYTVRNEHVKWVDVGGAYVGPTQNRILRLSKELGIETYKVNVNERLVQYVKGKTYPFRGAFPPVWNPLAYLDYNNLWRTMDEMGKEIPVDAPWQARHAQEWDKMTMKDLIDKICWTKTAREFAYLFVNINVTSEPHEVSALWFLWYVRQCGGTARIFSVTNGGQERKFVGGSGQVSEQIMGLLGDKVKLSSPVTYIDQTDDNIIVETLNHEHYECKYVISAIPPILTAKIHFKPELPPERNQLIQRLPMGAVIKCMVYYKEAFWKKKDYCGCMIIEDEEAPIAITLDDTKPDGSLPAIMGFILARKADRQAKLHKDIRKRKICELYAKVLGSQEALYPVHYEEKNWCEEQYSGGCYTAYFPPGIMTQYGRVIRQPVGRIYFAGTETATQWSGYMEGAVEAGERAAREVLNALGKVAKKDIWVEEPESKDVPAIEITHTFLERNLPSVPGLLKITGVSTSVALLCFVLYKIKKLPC
- protocolDescription: Radioligand binding MAO-A (antagonist radioligand), [^3H]Ro 41-1049, rat cerebral cortex
readoutKind: Mean Percent Inhibition of Control Specific Binding (%)
Numbers only; they are read as %.

molecule	studyTarget	result
COCCc1cc(CCN)c(OC)cc1Br [Compound 2CB-5ME, reference compound]	MAO-A (Rattus norvegicus, UniProt P21396)	5.4
COCc1cc(CCN)c(O)cc1CC(C)C	MAO-A (Rattus norvegicus, UniProt P21396)	7.0
COCc1cc(CCN)c(OC)cc1Br	MAO-A (Rattus norvegicus, UniProt P21396)	9.3

As a next step, examine the molecule that follows.
Q: State Mean Percent Inhibition of Control Specific Binding (MAO-A (Rattus norvegicus, UniProt P21396)) of COCc1cc(CCN)c(OC)cc1CC(C)C .
Ans: 4.1

---

- System: KV channel
- Format: binding, rat
- particulars: KV channel (antagonist radiolig.)
readoutKind: Mean Percent Inhibition of Control Specific Binding (%)
Numbers only; they are read as %.

compound	studyTarget	result
COCc1cc(CCN)c(O)cc1CC(C)C	KV channel	12.7
COCCc1cc(CCN)c(OC)cc1Br [Compound 2CB-5ME, reference compound]	KV channel	−4.3
COCc1cc(CCN)c(OC)cc1CC(C)C	KV channel	−4.2

Next up:
Q: Write Mean Percent Inhibition of Control Specific Binding of COCc1cc(CCN)c(OC)cc1Br ; system used: KV channel
Ans: 0.7

---

- studyTarget: Acetylcholinesterase (h) (Homo sapiens)
- Construct: purchased Eurofins Discovery (contract assay)
- Sequence (P22303 32-614): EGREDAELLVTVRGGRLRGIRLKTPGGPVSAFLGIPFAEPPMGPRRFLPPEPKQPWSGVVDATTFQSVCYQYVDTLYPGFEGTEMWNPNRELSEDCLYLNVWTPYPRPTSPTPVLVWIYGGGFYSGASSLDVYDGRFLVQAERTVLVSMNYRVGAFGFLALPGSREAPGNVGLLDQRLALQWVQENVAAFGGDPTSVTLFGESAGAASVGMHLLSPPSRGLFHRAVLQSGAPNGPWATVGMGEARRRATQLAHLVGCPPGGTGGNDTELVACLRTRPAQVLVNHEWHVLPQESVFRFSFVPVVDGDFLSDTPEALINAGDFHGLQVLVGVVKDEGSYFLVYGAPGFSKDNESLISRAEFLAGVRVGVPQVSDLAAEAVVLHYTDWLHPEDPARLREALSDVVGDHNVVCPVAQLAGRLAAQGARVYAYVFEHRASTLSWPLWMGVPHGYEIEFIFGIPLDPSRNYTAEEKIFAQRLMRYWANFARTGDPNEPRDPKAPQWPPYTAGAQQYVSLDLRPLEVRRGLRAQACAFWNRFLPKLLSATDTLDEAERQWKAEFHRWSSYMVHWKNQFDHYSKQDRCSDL
- protocolDescription: Enzyme assay Acetylcholinesterase (h), photometry
- Assay type: biochemical
Reported Mean Percent Inhibition of Control Specific Binding values are given for each entry in this list.

Consider the following illustrative entries.
compound	result
COCc1cc(CCN)c(O)cc1CC(C)C	4.4%
COCCc1cc(CCN)c(OC)cc1Br [Compound 2CB-5ME, reference compound]	−3.2%
COCc1cc(CCN)c(OC)cc1Br	−3.5%

Now for another entry.
Q: Hello, please tell me recorded Mean Percent Inhibition of Control Specific Binding for this one: COCc1cc(CCN)c(OC)cc1CC(C)C
Ans: 8.0%

---

- studyTarget: alpha1A (h) (Homo sapiens, UniProt P35348)
- Construct: expressed in transfected cells; host or cells: CHO cells
- Sequence (P35348 1-466): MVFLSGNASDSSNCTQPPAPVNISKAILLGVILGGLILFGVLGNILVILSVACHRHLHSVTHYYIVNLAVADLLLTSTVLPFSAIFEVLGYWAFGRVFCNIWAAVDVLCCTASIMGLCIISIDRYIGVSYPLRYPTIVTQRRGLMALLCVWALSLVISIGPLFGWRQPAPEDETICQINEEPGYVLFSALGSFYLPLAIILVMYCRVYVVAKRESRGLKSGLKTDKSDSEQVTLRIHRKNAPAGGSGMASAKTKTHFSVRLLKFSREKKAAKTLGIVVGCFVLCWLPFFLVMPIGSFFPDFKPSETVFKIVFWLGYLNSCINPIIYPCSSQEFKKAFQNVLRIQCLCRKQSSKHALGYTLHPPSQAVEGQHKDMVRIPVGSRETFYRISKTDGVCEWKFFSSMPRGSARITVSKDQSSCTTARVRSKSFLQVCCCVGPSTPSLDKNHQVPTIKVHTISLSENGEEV
- protocolDescription: Radioligand binding alpha1A (h) (antagonist radioligand), [^3H]prazosin, CHO cells
readoutKind: Mean Percent Inhibition of Control Specific Binding (%)
# unit: % | format: bare number

Guide cases for Mean Percent Inhibition of Control Specific Binding, answers given:
compound	unitAnnotation	result
COCc1cc(CCN)c(OC)cc1Br [Compound 2CB-5MM]	%	29.4
COCc1cc(CCN)c(O)cc1CC(C)C [2CiBu-2OH-5MM]	%	51.6
COCCc1cc(CCN)c(OC)cc1Br [Compound 2CB-5ME, reference compound]	%	33.6

Q: Name the recorded Mean Percent Inhibition of Control Specific Binding of COCc1cc(CCN)c(OC)cc1CC(C)C [Compound 2CiBu-5MM] , assay system alpha1A (h) (Homo sapiens, UniProt P35348).
Ans: 7.6

---

- studyTarget: 5-HT2A (Homo sapiens, UniProt P28223)
- protocolDescription: Calcium flux agonist assay, 293T cells
- Format: cell-based
- Parameters: expressed in transfected cells; host or cells: Human Embryonic Kidney (293T) cells, transient
- particulars: HEK-293T; calcium flux, 5-HT2A; normalized to maximum 5-HT response
readoutKind: Emax

molecule	studyTarget	Emax
COCc1cc(CCN)c(OC)cc1Br	5-HT2A (Homo sapiens, UniProt P28223)	114%
COc1cc(CCN)c(OC)cc1Br [Compound 2C-B, reference compound]	5-HT2A (Homo sapiens, UniProt P28223)	105%
COCc1cc(CCN)c(OC)cc1CC(C)C	5-HT2A (Homo sapiens, UniProt P28223)	111%

Q: Give Emax for the following molecule: COc1cc(CC(C)C)c(OC)cc1CCN [Compound 2C-iBu, reference compound]
Ans: 92.6%

Q: Quote Emax reported for COCc1cc(CCN)c(O)cc1CC(C)C please.
Ans: 115%

---

- studyTarget: D2S (h) (Homo sapiens, UniProt P14416)
- Construct: expressed in transfected cells; host or cells: HEK-293 cells
- Sequence (P14416 1-414 isoform P14416-2): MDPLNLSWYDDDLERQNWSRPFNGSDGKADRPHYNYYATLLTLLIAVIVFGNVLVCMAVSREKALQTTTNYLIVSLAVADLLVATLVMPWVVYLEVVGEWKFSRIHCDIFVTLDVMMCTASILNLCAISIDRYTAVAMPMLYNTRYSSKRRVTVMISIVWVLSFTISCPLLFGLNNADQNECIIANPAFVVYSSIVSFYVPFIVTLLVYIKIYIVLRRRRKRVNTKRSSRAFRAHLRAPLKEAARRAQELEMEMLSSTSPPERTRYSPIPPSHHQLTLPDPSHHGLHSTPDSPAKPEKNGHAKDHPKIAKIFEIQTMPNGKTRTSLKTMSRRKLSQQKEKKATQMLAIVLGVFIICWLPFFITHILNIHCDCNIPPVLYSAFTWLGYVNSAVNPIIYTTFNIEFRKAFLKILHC
- protocolDescription: Radioligand binding D2S (h) (agonist radioligand), [^3H]7-OH-DPAT, HEK-293 cells
readoutKind: Mean Percent Inhibition of Control Specific Binding (%)
Could you give me the number in %? Just the number is fine.

Consider the following illustrative entries.
compound	studyTarget	result
COCc1cc(CCN)c(OC)cc1CC(C)C [Compound 2CiBu-5MM]	D2S (h) (Homo sapiens, UniProt P14416)	12.9
COCCc1cc(CCN)c(OC)cc1Br [Compound 2CB-5ME, reference compound]	D2S (h) (Homo sapiens, UniProt P14416)	83.0
COCc1cc(CCN)c(O)cc1CC(C)C [2CiBu-2OH-5MM]	D2S (h) (Homo sapiens, UniProt P14416)	46.6

Q: Return reported Mean Percent Inhibition of Control Specific Binding. Input compound: COCc1cc(CCN)c(OC)cc1Br [Compound 2CB-5MM]
Ans: 89.4

---

- studyTarget: CB2 (h) (Homo sapiens)
- Construct: expressed in transfected cells; host or cells: CHO cells
- Sequence (P34972 whole entry): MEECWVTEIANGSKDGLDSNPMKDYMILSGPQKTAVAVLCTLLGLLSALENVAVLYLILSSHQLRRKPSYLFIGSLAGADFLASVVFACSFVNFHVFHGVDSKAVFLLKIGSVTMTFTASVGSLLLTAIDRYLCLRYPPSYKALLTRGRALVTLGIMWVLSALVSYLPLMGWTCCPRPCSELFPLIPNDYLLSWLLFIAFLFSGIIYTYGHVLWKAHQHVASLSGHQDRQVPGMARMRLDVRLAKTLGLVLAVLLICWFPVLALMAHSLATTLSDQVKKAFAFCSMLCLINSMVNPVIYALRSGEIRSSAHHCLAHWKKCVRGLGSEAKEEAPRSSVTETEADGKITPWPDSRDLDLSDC
- protocolDescription: Radioligand binding CB2 (h) (agonist radioligand), [^3H]WIN 55212-2, CHO cells
readoutKind: Mean Percent Inhibition of Control Specific Binding
A bare number is not enough; add the unit after it.

Sample records with Mean Percent Inhibition of Control Specific Binding:
molecule	result
COCCc1cc(CCN)c(OC)cc1Br [Compound 2CB-5ME, reference compound]	−22.8%
COCc1cc(CCN)c(OC)cc1CC(C)C [Compound 2CiBu-5MM]	17.8%
COCc1cc(CCN)c(OC)cc1Br [Compound 2CB-5MM]	−14.9%

Read the next record carefully.
Q: State measured Mean Percent Inhibition of Control Specific Binding of the molecule COCc1cc(CCN)c(O)cc1CC(C)C [2CiBu-2OH-5MM] with CB2 (h) (Homo sapiens).
Ans: −6.0%

---

- studyTarget: 5-HT2B (Homo sapiens, UniProt P41595)
- Sequence (P41595 whole entry): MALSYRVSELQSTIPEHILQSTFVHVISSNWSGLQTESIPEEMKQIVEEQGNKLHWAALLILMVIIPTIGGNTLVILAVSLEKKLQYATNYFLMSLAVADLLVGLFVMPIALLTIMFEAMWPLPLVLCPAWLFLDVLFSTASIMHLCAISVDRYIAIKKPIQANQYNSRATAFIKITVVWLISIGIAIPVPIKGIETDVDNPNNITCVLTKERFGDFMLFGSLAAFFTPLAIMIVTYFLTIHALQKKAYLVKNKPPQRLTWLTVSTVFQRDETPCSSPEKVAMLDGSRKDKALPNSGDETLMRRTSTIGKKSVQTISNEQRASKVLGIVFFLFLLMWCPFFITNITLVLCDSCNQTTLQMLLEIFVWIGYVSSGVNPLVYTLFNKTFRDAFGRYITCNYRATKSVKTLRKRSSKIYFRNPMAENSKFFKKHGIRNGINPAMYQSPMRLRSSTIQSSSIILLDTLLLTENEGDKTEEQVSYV
- protocolDescription: IP-One HTRF IP-1 accumulation functional assay, 5-HT2B/HEK293
- Type: cell-based
- Design: host or cells: HEK293
readoutKind: log10 of EC50 (log10 of the value in µM)
Quick note: numbers are log10 of EC50, with µM as the unit.

Use the examples below as a reference point.
compound	log10 of EC50
COCc1cc(CCN)c(OC)cc1CC(C)C	-0.08
COc1cc(CCN)c(OC)cc1Br [Compound 2C-B, reference compound]	-0.63
COCCc1cc(CCN)c(OC)cc1Br [Compound 2CB-5ME, reference compound]	-0.88
COCc1cc(CCN)c(OC)cc1Br	-1.10

# input for lookup
Q: Identify measured log10 of EC50 associated with COc1cc(CC(C)C)c(CO)cc1CCN
Ans: 0.05
